Origin of values: patent US20220380768A1

Measured pKd, listed per entry for reference.
target: T1, human CD22 (d1 to d7 domain according to NP_001762.2) (human, UniProt P20273 20-687); assay: SPR; summary table, column 'CD22 KD (nM)'
T1 construct: domain: d1 to d7 domain; also called human CD22-gly; Siglec-2
Scale: pKd equals -log10([C]), with [C] in mol/L.

Some entries whose results are on file:
# BINDER, pKd
records = [
    ("TNT69 (antibody, human IgG1, kappa, V domains shown) VH: EVQLVESGGGLVQPGGSLRLSCAASGFAFSIYDMSWVRQAPGKGLEWVAYISSGGGTTYYPDTVKGRFTISRDNSKNTLYLQMNSLRAEDTAVYYCARHSGYGTHWGVLFAYWGRGTLVTVSS VL: DIQMTQSPSSLSASVGDRVTITCRASQDIHGYLNWYQQKPGKAPKLLIYYTSILHSGVPSRFSGSGSGTDFTLTISSLQPEDFATYFCQQGNTLPWTFGQGTKLEIKR", 9.22),
    ("TNT73 (antibody, human IgG1, kappa, V domains shown) VH: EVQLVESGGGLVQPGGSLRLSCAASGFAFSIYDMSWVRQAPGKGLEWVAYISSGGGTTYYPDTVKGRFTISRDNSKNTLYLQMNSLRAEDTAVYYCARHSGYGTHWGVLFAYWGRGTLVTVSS VL: DIQMTQSPSSVSASVGDRVTITCRASQDIHGYLAWYQQKPGKAPKLLIYYTSSLQSGVPSRFSGSGSGTDFTLTISSLQPEDFATYYCQQGNTLPWTFGQGTKLEIKR", 7.85),
]

Would you kindly look at the next entry?
So what's the measured pKd for this one? TNT83 (antibody, human IgG1, kappa, V domains shown) VH: EVQLVESGGGLVQPGGSLRLSCAASGFTFSSYEMNWVRQAPGKGLEWVSYISSSGSTIYYADSVKGRFTISRDNAKNSLYLQMNSLRAEDTAVYYCARHSGYGTHWGVLFAYWGRGTLVTVSS VL: EIVLTQSPATLSLSPGERATLSCRASQDIHGYLNWYQQKPGQAPRLLIYYTSILHSGIPARFSGSGPGTDFTLTISSLEPEDFAVYYCQQGNTLPWTFGGGTKLEIKR
8.22
